STUDY SYSTEM: Sodium-dependent dopamine transporter (Rattus norvegicus, UniProt P23977)
Sequence (P23977 whole entry): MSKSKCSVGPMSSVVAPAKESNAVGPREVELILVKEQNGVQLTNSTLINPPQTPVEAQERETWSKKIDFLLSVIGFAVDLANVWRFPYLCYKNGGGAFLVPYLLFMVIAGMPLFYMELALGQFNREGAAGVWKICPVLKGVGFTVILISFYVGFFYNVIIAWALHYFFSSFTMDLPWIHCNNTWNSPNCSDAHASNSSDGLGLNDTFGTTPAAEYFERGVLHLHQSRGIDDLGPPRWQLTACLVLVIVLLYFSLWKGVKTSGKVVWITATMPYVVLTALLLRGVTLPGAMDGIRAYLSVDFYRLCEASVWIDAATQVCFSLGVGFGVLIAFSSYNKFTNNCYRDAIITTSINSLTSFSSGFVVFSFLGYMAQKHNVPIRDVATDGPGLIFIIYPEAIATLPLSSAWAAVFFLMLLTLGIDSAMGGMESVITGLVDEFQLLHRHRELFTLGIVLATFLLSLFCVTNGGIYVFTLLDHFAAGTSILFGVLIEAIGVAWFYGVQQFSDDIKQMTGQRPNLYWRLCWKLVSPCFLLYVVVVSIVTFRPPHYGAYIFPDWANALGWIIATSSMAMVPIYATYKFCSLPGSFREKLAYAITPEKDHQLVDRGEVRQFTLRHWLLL
PROCEDURE TEXT: Inhibition of rat DAT-mediated [3H]dopamine uptake in CHO cells
Assay type: cell-based
TEST CONDITIONS: cho
Starred links: 1 amine or outer side, 2 acyl side, 3 side chain; linkers in the order of their positions; H or OH if unused. Non-standard residues stand in square brackets, D forms with d. Residues, ends and D or L forms follow the SMILES beside them. *: point of attachment. X1 = O=C([C@H](Cc1ccc(O)c(Cc2ccccc2)c1)N[*:1])[*:2]; Bip = N[C@@H](Cc1ccc(-c2ccccc2)cc1)C(=O)O; Bn = c1ccc(C*)cc1
Please go through the items and note down their IC50.
One number for each entry, in µM.

Inquiry: Give recorded IC50. C[C@@H](O)[C@H](NC(=O)[C@H](CCCCN)NC(=O)[C@@H]1CCCN1C(=O)[C@@H](NC(=O)[C@H](Cc1ccc(O)cc1)NC(=O)[C@@H](N)Cc1ccc(-c2ccccc2)cc1)[C@@H](C)OCc1ccccc1)C(=O)NCC(=O)O (H-[Bip]YT(Bn)PKTG-OH)
Reply text: 20

Inquiry: Give the value of IC50 reported for the following: C[C@@H](O)[C@H](NC(=O)[C@H](CCCCN)NC(=O)[C@@H]1CCCN1C(=O)[C@@H](NC(=O)[C@H](Cc1ccc(O)c(Cc2ccccc2)c1)NC(=O)[C@@H](N)Cc1ccc(-c2ccccc2)cc1)[C@@H](C)O)C(=O)O (H-[Bip][X1]TPKT-OH)
Reply text: 10

Inquiry: In one line, give reported IC50 of the entry C[C@@H](O)[C@H](NC(=O)[C@H](CCCCN)NC(=O)[C@@H]1CCCN1C(=O)[C@@H](NC(=O)[C@H](Cc1ccc(O)cc1)NC(=O)[C@@H](N)Cc1ccc(-c2ccccc2)cc1)[C@@H](C)O)C(=O)O (H-[Bip]YTPKT-OH) .
Reply text: 19

Inquiry: Indicate its recorded IC50; the molecule in question is C[C@H](NC(=O)[C@H](Cc1ccc(O)cc1)NC(=O)[C@@H](N)Cc1ccc(-c2ccccc2)cc1)C(=O)N1CCC[C@H]1C(=O)N[C@@H](CCCCN)C(=O)N[C@H](C(=O)NCC(=O)O)[C@@H](C)OCc1ccccc1 (H-[Bip]YAPKT(Bn)G-OH)
Reply text: 11

Inquiry: Identify measured IC50 corresponding to C[C@H](NC(=O)[C@@H]1CCCN1C(=O)[C@@H](NC(=O)[C@H](Cc1ccc(O)cc1)NC(=O)[C@@H](N)Cc1ccc(-c2ccccc2)cc1)[C@@H](C)O)C(=O)N[C@H](C(=O)NCC(=O)O)[C@@H](C)OCc1ccccc1 (H-[Bip]YTPAT(Bn)G-OH)
Reply text: 1.7

Next molecule, IC50 to be filled in.
Inquiry: Retrieve IC50 measured for C[C@@H](O)[C@H](NC(=O)[C@H](Cc1ccc(O)cc1)NC(=O)[C@@H](N)Cc1ccc(-c2ccccc2)cc1)C(=O)N1CCC[C@H]1C(=O)N[C@@H](CCCCN)C(=O)N[C@H](C(=O)NCC(=O)O)[C@@H](C)OCc1ccccc1 (H-[Bip]YTPKT(Bn)G-OH) and print it.
Reply text: 1.8

###

STUDY SYSTEM: Sodium-dependent dopamine transporter (Rattus norvegicus)
PROCEDURE TEXT: Inhibition of rat DAT-mediated [3H]dopamine uptake in CHO cells
Type: cell-based
TEST CONDITIONS: cho
Non-standard residues stand in square brackets, D forms with d. Residues, ends and D or L forms follow the SMILES beside them. *: point of attachment. Bip = N[C@@H](Cc1ccc(-c2ccccc2)cc1)C(=O)O; Bn = c1ccc(C*)cc1
MEASURED METRIC: pIC50
Answers are plain numbers, as −log10 of the molar value.

Inquiry: Assign pIC50 to the following record: C[C@H](NC(=O)[C@@H](N)Cc1ccc(-c2ccccc2)cc1)C(=O)N[C@H](C(=O)N1CCC[C@H]1C(=O)N[C@@H](CCCCN)C(=O)N[C@H](C(=O)NCC(=O)O)[C@@H](C)OCc1ccccc1)[C@@H](C)O (H-[Bip]ATPKT(Bn)G-OH)
Reply text: 3.76

###

Give pIC50 for every item shown.
STUDY SYSTEM: Sodium-dependent dopamine transporter (Rattus norvegicus)
PROCEDURE TEXT: Inhibition of rat DAT-mediated [3H]dopamine uptake in CHO cells
Format: cell-based
Non-standard residues stand in square brackets, D forms with d. Residues, ends and D or L forms follow the SMILES beside them. *: point of attachment. Bpa = N[C@@H](Cc1ccc(C(=O)c2ccccc2)cc1)C(=O)O; Bip = N[C@@H](Cc1ccc(-c2ccccc2)cc1)C(=O)O; 1Nal = N[C@@H](Cc1cccc2ccccc12)C(=O)O; 2Nal = N[C@@H](Cc1ccc2ccccc2c1)C(=O)O; Bn = c1ccc(C*)cc1
One number for each entry, as −log10 of the molar value.

Use these answered entries as a reference point.
Inquiry: Dear colleague, please send me the reported pIC50 for C[C@@H](O)[C@H](NC(=O)[C@H](Cc1ccc(O)cc1)NC(=O)[C@@H](N)Cc1ccc2ccccc2c1)C(=O)N1CCC[C@H]1C(=O)N[C@@H](CCCCN)C(=O)N[C@H](C(=O)NCC(=O)O)[C@@H](C)OCc1ccccc1 (H-[2Nal]YTPKT(Bn)G-OH) when you can.
Reply text: 3.74

Inquiry: Answer with the recorded pIC50 for the compound listed here: C[C@@H](O)[C@H](NC(=O)[C@H](Cc1ccc(O)cc1)NC(=O)[C@@H](N)Cc1cccc2ccccc12)C(=O)N1CCC[C@H]1C(=O)N[C@@H](CCCCN)C(=O)N[C@H](C(=O)NCC(=O)O)[C@@H](C)OCc1ccccc1 (H-[1Nal]YTPKT(Bn)G-OH)
Reply text: 3.70

Inquiry: Give recorded pIC50. C[C@@H](O)[C@H](NC(=O)[C@H](Cc1ccc(O)cc1)NC(=O)[C@@H](N)Cc1ccc(-c2ccccc2)cc1)C(=O)N1CCC[C@H]1C(=O)N[C@H](C(=O)NCC(=O)O)[C@@H](C)OCc1ccccc1 (H-[Bip]YTPT(Bn)G-OH)
Reply text: 6.52

Please examine the following record next.
Inquiry: Provide only the value of recorded pIC50 for C[C@@H](O)[C@H](NC(=O)[C@H](Cc1ccc(O)cc1)NC(=O)[C@@H](N)Cc1ccc(C(=O)c2ccccc2)cc1)C(=O)N1CCC[C@H]1C(=O)N[C@@H](CCCCN)C(=O)N[C@H](C(=O)NCC(=O)O)[C@@H](C)OCc1ccccc1 (H-[Bpa]YTPKT(Bn)G-OH)
Reply text: 3.62
